test: Oral bioavailability in Lewis rat at 5 mg/kg; format: ADME, organism-based; details: in vivo
measured metric: bioavailability (%)

O=C(NCCC1CC1)c1ccc(N2CCN(C(=O)c3ccccc3C(F)(F)F)CC2)nn1 :: 46

###

target: CYP2C9 (Homo sapiens); test: Inhibition of CYP2C9 (unknown origin) at 10 uM; assay type: ADME
Sequence (P11712 whole entry): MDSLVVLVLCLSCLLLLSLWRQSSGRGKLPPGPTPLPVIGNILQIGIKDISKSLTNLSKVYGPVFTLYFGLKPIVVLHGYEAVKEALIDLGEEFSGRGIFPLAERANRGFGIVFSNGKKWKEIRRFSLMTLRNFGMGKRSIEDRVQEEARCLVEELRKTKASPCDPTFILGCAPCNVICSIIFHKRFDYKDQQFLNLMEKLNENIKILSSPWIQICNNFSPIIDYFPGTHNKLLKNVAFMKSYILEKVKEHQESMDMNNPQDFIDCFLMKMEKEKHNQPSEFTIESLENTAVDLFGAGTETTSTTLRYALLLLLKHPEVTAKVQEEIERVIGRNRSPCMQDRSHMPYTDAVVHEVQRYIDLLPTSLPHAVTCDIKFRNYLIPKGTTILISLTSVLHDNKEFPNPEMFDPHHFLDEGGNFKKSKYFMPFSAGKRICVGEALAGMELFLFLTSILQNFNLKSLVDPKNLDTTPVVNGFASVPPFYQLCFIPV
measured metric: inhibition at 10 µM

CC(C)CCNC(=O)c1ccc(N2CCN(C(=O)c3ccccc3C(F)(F)F)CC2)nn1 :: < 50%

###

target: CYP2D6 (Homo sapiens); assay: Inhibition of CYP2D6 (unknown origin) at 10 uM; assay type: ADME
Sequence (P10635 whole entry): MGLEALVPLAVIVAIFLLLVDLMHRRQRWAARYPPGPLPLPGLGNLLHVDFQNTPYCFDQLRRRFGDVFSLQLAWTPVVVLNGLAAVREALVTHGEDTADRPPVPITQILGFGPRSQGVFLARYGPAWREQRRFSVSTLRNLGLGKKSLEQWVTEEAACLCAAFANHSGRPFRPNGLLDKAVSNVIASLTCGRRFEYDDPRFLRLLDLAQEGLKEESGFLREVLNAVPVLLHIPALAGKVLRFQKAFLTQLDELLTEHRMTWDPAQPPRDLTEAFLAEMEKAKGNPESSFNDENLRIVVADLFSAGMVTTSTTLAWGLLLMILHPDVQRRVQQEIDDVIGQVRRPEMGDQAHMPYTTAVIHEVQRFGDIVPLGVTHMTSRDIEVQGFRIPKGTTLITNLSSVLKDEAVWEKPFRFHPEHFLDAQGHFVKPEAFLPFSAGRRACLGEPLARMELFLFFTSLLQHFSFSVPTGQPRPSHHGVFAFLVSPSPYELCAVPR
measured metric: inhibition at 10 µM

CC(C)CCNC(=O)c1ccc(N2CCN(C(=O)c3ccccc3C(F)(F)F)CC2)nn1 :: < 50%
